Examples of compounds with documented inhibition at 100 µM follow.
- TESTED_SYSTEM: fatty acid amide hydrolase (FAAH) (Rattus norvegicus (Rat))
- EXPERIMENTAL_DETAILS: FAAH enzyme assay: inhibition of anandamide (AEA) hydrolysis, arachidonic acid quantified by HPLC
- Format: biochemical
- TEST_PARAMETERS: one-point assay, inhibitor 100 μM; partially purified rat brain FAAH, 15 min; read-out: % Inhibition (Concentration)
The response must be a number in % with no trailing unit.

[[record]]
smiles_string = "Oc1cccc(OCCCC(O)(O)C(F)(F)F)c1"
endpoint_name = "inhibition at 100 µM"
value = 79

[[record]]
smiles_string = "O=C(Nc1ccc(I)cc1)Oc1ccccc1"
endpoint_name = "inhibition at 100 µM"
value = 84

[[record]]
smiles_string = "O=C(CCCCCOc1ccccc1OCc1ccccc1)C(F)(F)F"
endpoint_name = "inhibition at 100 µM"
value = 95

[[record]]
smiles_string = "CCCCCc1cc(OC)c(-c2ccc(C(=O)C(F)(F)F)cc2)c(OC)c1"
endpoint_name = "inhibition at 100 µM"
value = 57

[[record]]
smiles_string = "Cc1nnc(C(=O)c2cccc(-c3cccc(OCc4ccccc4)c3)c2)o1"
endpoint_name = "inhibition at 100 µM"
value = 56


Ask: Answer with inhibition at 100 µM of CCOC(=O)C(=O)CCCCOc1cccc(OCc2ccccc2)c1 measured for fatty acid amide hydrolase (FAAH) (Rattus norvegicus (Rat)).
Reply: 100

Ask: Answer with inhibition at 100 µM of O=C1c2ccccc2S(=O)(=O)N1CCCCOc1ccccc1 measured for fatty acid amide hydrolase (FAAH) (Rattus norvegicus (Rat)).
Reply: 91

Ask: Answer with inhibition at 100 µM of CC(=O)C(F)(F)CCCCOc1ccccc1 measured for fatty acid amide hydrolase (FAAH) (Rattus norvegicus (Rat)).
Reply: 98

Ask: Answer with inhibition at 100 µM of CCCCCCC(C)(C)c1cc(O)c(-c2ccc(NC(=O)OCC)cc2)c(O)c1 measured for fatty acid amide hydrolase (FAAH) (Rattus norvegicus (Rat)).
Reply: 15

----------
- TESTED_SYSTEM: fatty acid amide hydrolase (FAAH) (Rattus norvegicus (Rat), UniProt P97612)
- Sequence (P97612 whole entry): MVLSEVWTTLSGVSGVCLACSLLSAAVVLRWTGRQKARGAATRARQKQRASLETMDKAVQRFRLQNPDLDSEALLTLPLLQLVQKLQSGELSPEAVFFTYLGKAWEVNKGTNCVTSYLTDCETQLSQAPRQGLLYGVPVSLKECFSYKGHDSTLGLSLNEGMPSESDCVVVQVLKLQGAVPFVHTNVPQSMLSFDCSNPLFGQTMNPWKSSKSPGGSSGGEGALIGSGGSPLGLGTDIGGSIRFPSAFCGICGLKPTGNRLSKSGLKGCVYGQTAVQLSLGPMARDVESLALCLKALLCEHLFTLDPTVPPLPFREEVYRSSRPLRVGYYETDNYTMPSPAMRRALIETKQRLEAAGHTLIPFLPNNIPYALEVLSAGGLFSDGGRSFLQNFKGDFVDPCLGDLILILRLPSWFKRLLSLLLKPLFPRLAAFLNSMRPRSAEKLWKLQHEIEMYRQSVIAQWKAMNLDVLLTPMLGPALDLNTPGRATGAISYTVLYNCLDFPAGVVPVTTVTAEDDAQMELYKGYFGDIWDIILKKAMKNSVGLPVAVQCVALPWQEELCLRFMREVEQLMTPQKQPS
- EXPERIMENTAL_DETAILS: FAAH enzyme assay: inhibition of anandamide (AEA) hydrolysis, arachidonic acid quantified by HPLC
- Assay type: biochemical
- TEST_PARAMETERS: one-point assay, inhibitor 100 μM; partially purified rat brain FAAH, 15 min; read-out: % Inhibition (Concentration)
- Protocol: The resulting supernatant is injected onto the HPLC.
Examples of molecules with documented inhibition at 100 µM follow.
The response must be a number in % with no trailing unit.

Illustrative cases are given below, each with its answer.
[[record]]
molecule = "O=C(CCCCOc1ccccc1)C(F)(F)F"
value = 65

[[record]]
molecule = "O=C(c1cccc(Br)n1)C(F)(F)c1ccc(-c2ccccc2)cc1"
value = 94

[[record]]
molecule = "O=C1c2ccccc2S(=O)(=O)N1Cc1ccccc1"
value = 42

[[record]]
molecule = "O=S(=O)(F)CCCCCc1ccc(OCc2ccccc2)cc1"
value = 97

[[record]]
molecule = "O=S(=O)(F)CCCCCCCc1ccccc1 [Compound 4.2, 7-Phenyl-heptanesulfonyl fluoride, reference compound]"
value = 31


Next up:
Ask: Fill in reported inhibition at 100 µM for this entry: COS(=O)(=O)CCCCCCCc1ccc(OCc2ccccc2)cc1
Reply: 93

----------
- TESTED_SYSTEM: fatty acid amide hydrolase (FAAH) (Rattus norvegicus (Rat), UniProt P97612)
- EXPERIMENTAL_DETAILS: FAAH enzyme assay: inhibition of anandamide (AEA) hydrolysis, arachidonic acid quantified by HPLC
- Format: biochemical
- TEST_PARAMETERS: one-point assay, inhibitor 100 μM; partially purified rat brain FAAH, 15 min; read-out: % Inhibition (Concentration)
ENDPOINT_NAME: inhibition at 100 µM (%)
The response must be a number in % with no trailing unit.

[[record]]
compound = "O=C(CCCCCCOc1ccc(OCc2ccccc2)cc1)C(F)(F)F"
value = 88


Ask: Fill in reported inhibition at 100 µM for this entry: CCCCCCC(C)(C)c1cc(OCOCC)c(-c2ccc(NC(=O)OCc3ccccc3)cc2)c(OCOCC)c1
Reply: 41

Ask: Fill in reported inhibition at 100 µM for this entry: CCCCCCC(C)(C)c1cc(O)c(-c2ccc(C(=O)C(F)(F)F)cc2)c(O)c1
Reply: 36

Ask: Fill in reported inhibition at 100 µM for this entry: O=S(=O)(F)CCCCOc1ccccc1 [Compound 17, 4-Phenoxybutylsulfonyl fluoride]
Reply: 100

Ask: Fill in reported inhibition at 100 µM for this entry: O=C(CCCCCCOc1ccccc1)c1nnc(CO)o1
Reply: 96

Ask: Fill in reported inhibition at 100 µM for this entry: CCCCCCC(C)(C)c1cc(O)c(-c2ccc(NC(=O)OCc3ccccc3)cc2)c(O)c1
Reply: 89

Ask: Fill in reported inhibition at 100 µM for this entry: CCOC(=O)C(=O)CCCCCOc1ccccc1
Reply: 100

Ask: Fill in reported inhibition at 100 µM for this entry: O=C1c2ccccc2S(=O)(=O)N1CCCCOc1ccc(O)cc1 [Compound 84, N-[4-(4-Hydroxy-phenoxy)-butyl]saccharin]
Reply: 92

----------
- TESTED_SYSTEM: fatty acid amide hydrolase (FAAH) (Rattus norvegicus (Rat))
- EXPERIMENTAL_DETAILS: FAAH enzyme assay: inhibition of anandamide (AEA) hydrolysis, arachidonic acid quantified by HPLC
- Assay type: biochemical
- TEST_PARAMETERS: eight-point assay; calculated with Prizm software; read-out: Ki
- Description: The resulting supernatant is injected onto the HPLC.
ENDPOINT_NAME: pKi
Scale for pKi: -log10 of concentration given in mol/L; no unit attached.

Illustrative cases are given below, each with its answer.
[[record]]
smiles_string = "O=C(CCCCCOc1cccc(O)c1)C(F)(F)F"
tested_system = "fatty acid amide hydrolase (FAAH) (Rattus norvegicus (Rat))"
value = 6.36

[[record]]
smiles_string = "O=C(CCCCCCOc1ccccc1)c1nnc(COCc2ccccc2)o1"
tested_system = "fatty acid amide hydrolase (FAAH) (Rattus norvegicus (Rat))"
value = 8.70


Ask: Fill in reported pKi for this entry: O=C(CCCOc1cccc(OCc2ccccc2)c1)C(F)(F)F
Reply: 6.11

Ask: Fill in reported pKi for this entry: O=C(CCCCOc1cccc(OCc2ccccc2)c1)C(F)(F)F
Reply: 6.33

Ask: Fill in reported pKi for this entry: O=C(CCCCCOc1ccc(OCc2ccccc2)cc1)C(F)(F)F
Reply: 6.49

----------
Examples of compounds with documented melting point follow.

Illustrative cases are given below, each with its answer.
[[record]]
compound = "Cc1nnc(C(=O)c2cccc(-c3cccc(OCc4ccccc4)c3)c2)o1 [Compound 78]"
endpoint_name = "melting point"
value = "97 to 99 °C"

[[record]]
compound = "O=C(NCCCc1ccccc1)NCc1ccccn1 [Compound 59.1]"
endpoint_name = "melting point"
value = "89 to 90 °C"

[[record]]
compound = "O=S(=O)(F)CCCCOc1ccccc1 [Compound 17, 4-Phenoxybutylsulfonyl fluoride]"
endpoint_name = "melting point"
value = "74 to 76 °C"

[[record]]
compound = "O=C(CCCOc1ccc(OCc2ccccc2)cc1)C(F)(F)F [Compound 23.1]"
endpoint_name = "melting point"
value = "59 to 61 °C"

[[record]]
compound = "O=C(CCCCCCOc1ccc(O)cc1)C(F)(F)F [Compound 24.4]"
endpoint_name = "melting point"
value = "61 to 62 °C"

[[record]]
compound = "O=S(=O)(Cl)CCCCCCCc1ccc(OCc2ccccc2)cc1 [Compound 12.1]"
endpoint_name = "melting point"
value = "33 to 35 °C"


Ask: Fill in reported melting point for this entry: O=C(CCCCOc1ccccc1O)C(F)(F)F [Compound 24.9]
Reply: 51 to 52 °C

Ask: Fill in reported melting point for this entry: COS(=O)(=O)CCCCCCCc1ccc(OCc2ccccc2)cc1 [Compound 18]
Reply: 57 to 59 °C

Ask: Fill in reported melting point for this entry: O=C(CCCCCOc1ccc(OCc2ccccc2)cc1)C(F)(F)F [Compound 23.3]
Reply: 59 to 60 °C

Ask: Fill in reported melting point for this entry: O=S(=O)(Cl)CCCCOc1ccccc1 [Compound 16, 4-Phenoxybutyl sulfonyl chloride]
Reply: 65 to 67 °C

Ask: Fill in reported melting point for this entry: O=S(=O)(F)CCCCCc1ccc(O)cc1 [Compound 14.4]
Reply: 32 to 35 °C

Ask: Fill in reported melting point for this entry: O=S(=O)(F)CCCCCCCc1ccc(OCc2ccccc2)cc1 [Compound 13.1]
Reply: 35 to 38 °C

Ask: Fill in reported melting point for this entry: O=S(=O)(F)CCCCCCCc1ccc(O)cc1 [Compound 14.1]
Reply: 47 to 51 °C

----------
- TESTED_SYSTEM: fatty acid amide hydrolase (FAAH) (Rattus norvegicus (Rat), UniProt P97612)
- EXPERIMENTAL_DETAILS: FAAH enzyme assay: inhibition of anandamide (AEA) hydrolysis, arachidonic acid quantified by HPLC
- Type: biochemical
- TEST_PARAMETERS: eight-point assay; anandamide hydrolysis by FAAH; read-out: IC50
Examples of compounds with documented pIC50 follow.
Scale for pIC50: -log10 of concentration given in mol/L; no unit attached.

[[record]]
smiles_string = "COS(=O)(=O)CCCCCCCc1ccc(OCc2ccccc2)cc1"
endpoint_name = "pIC50"
value = 6.59

[[record]]
smiles_string = "O=S(=O)(Cl)CCCCCCCc1ccccc1OCc1ccccc1"
endpoint_name = "pIC50"
value = 5.76

[[record]]
smiles_string = "O=S(=O)(F)CCCCCc1ccc(O)cc1"
endpoint_name = "pIC50"
value = 6.46


Ask: Answer with pIC50 of O=C(CCCCOc1ccccc1OCc1ccccc1)C(F)(F)F measured for fatty acid amide hydrolase (FAAH) (Rattus norvegicus (Rat), UniProt P97612).
Reply: 6.18
